- System: senescence-associated β-galactosidase in salivary gland cell clusters (SGm)
- protocol_text: Cellular senescence assay (SPiDER-βGal) in salivary gland tissue chip, 5 days post-radiation (15 Gy); also second screen of library hits at 100 μM
- Format: cell-based, mouse
- experimental_conditions: second screen of library hits at 100 μM, 15 Gy, 5 days post-radiation; only drugs nonsignificant compared to 0 Gy in the glutathione assay
Where a name gives a salt, the structure may show the parent alone.
endpoint: Senescence normalized mean intensity
Answers are plain numbers.

Below: 3 compounds and their reported Senescence normalized mean intensity.
O=C(Nc1cccc2c(=O)cc(-c3nnn[nH]3)oc12)c1ccc(OCCCCc2ccccc2)cc1 [Pranlukast] = 1.394
CC(O)(P(=O)(O)O)P(=O)(O)O [Etidronate (Didronel)] = 0.992
C[C@]12C=CC(=O)C=C1CC[C@H]1[C@@H]3C[C@@H](O)[C@](O)(C(=O)CO)[C@@]3(C)C[C@H](O)[C@@]12F [Triamcinolone (Aristocort)] = 0.9883

For the 3 compounds below, give their Senescence normalized mean intensity values.
1. CC(=O)OCC[N+](C)(C)C.[Cl-] [Acetylcholine chloride]
2. COC(=O)Nc1nc2cc(C(=O)c3ccc(F)cc3)ccc2[nH]1 [Flubendazole (Flutelmium)]
3. NC(N)=NC(=O)c1nc(Cl)c(N)nc1N [Amiloride hydrochloride (Midamor)]

1: 1.205; 2: 1.444; 3: 1.487

For the 2 compounds below, give their Senescence normalized mean intensity values.
1. COC(=O)C1=C(C)NC(C)=C(C(=O)OC)C1c1ccccc1[N+](=O)[O-] [Nifedipine (Adalat)]
2. C[C@H](CCC(=O)O)[C@H]1CC[C@H]2[C@@H]3[C@H](O)C[C@@H]4C[C@H](O)CC[C@]4(C)[C@H]3CC[C@]12C [Chenodeoxycholic acid]

1. 0.9725
2. 1.45

For the 3 compounds below, give their Senescence normalized mean intensity values.
1. CC/C(=C(/CC)c1ccc(O)cc1)c1ccc(O)cc1 [Diethylstilbestrol (Stilbestrol)]
2. CC(C(=O)[O-])c1cccc(Oc2ccccc2)c1.CC(C(=O)[O-])c1cccc(Oc2ccccc2)c1.[Ca+2] (centres unmarked) [Fenoprofen calcium]
3. COc1ccccc1OCCNCC(O)COc1cccc2[nH]c3ccccc3c12 (centres unmarked) [Carvedilol]

0.8812
1.472
1.255

For the 6 compounds below, give their Senescence normalized mean intensity values.
1. COc1cc(/C=C/C(=O)CC(=O)/C=C/c2ccc(O)c(OC)c2)ccc1O [Curcumin]
2. CN1CCC[C@@H]1CCO[C@](C)(c1ccccc1)c1ccc(Cl)cc1 [Clemastine Fumarate]
3. O=NN(CCCl)C(=O)NC1CCCCC1 [Lomustine (CeeNU)]
4. CN(C)CCC(c1ccc(Cl)cc1)c1ccccn1 (centres unmarked) [Chlorpheniramine Maleate]
5. CCOC(=O)C(C)(C)Oc1ccc(Cl)cc1 [Clofibrate (Atromid-S)]
6. Cc1cnc(C(=O)O)c[n+]1[O-] [Acipimox]

[0.8098, 1.237, 1.023, 1.308, 1.714, 1.379]

----------
- System: Reduced glutathione in salivary gland cell clusters (SGm)
- protocol_text: Glutathione assay in salivary gland tissue chip, 4 days post-radiation (15 Gy); also first screen of Selleck library at 100 μM
- Assay type: cell-based, mouse
- experimental_conditions: first screen of Selleck library at 100 μM, 15 Gy, 4 days post-radiation
Where a name gives a salt, the structure may show the parent alone.
Kindly state Glutathione normalized mean intensity for each of the entries shown.
Answers are plain numbers.

Below: 5 molecules and their reported Glutathione normalized mean intensity.
C[C@H](CCC(=O)O)[C@H]1CC[C@H]2[C@@H]3[C@H](O)C[C@@H]4C[C@H](O)CC[C@]4(C)[C@H]3CC[C@]12C = 1.11
CC(C(=O)[O-])c1cccc(Oc2ccccc2)c1.CC(C(=O)[O-])c1cccc(Oc2ccccc2)c1.[Ca+2] (stereo not shown) = 0.9731
CC1(C)[C@H](C(=O)O)N2C(=O)C[C@H]2S1(=O)=O = 0.6491
C=CCc1cc(OC)c(O)c(C(=O)NCCO)c1 [Alibendol] = 0.7165
CN(C)[C@@H](CCOc1cccc2ccccc12)c1ccccc1 [Dapoxetine hydrochloride (Priligy)] = 0.7539

For the 4 molecules below, give their Glutathione normalized mean intensity values.
1. NC(=O)NO [Hydroxyurea (Cytodrox)]
2. COc1cc(/C=C/C(=O)CC(=O)/C=C/c2ccc(O)c(OC)c2)ccc1O
3. NC(N)=NC(=O)c1nc(Cl)c(N)nc1N [Amiloride hydrochloride (Midamor)]
4. COc1ccc([C@@H]2Sc3ccccc3N(CCN(C)C)C(=O)[C@@H]2OC(C)=O)cc1 [Diltiazem HCL (Tiazac)]

1: 0.4236; 2: 0.9059; 3: 1.018; 4: 0.7425

For the 2 molecules below, give their Glutathione normalized mean intensity values.
1. CC(C)(S)[C@@H](N)C(=O)O
2. COc1cc([C@@H]2c3cc4c(cc3[C@@H](O[C@@H]3O[C@@H]5CO[C@@H](c6cccs6)O[C@H]5[C@H](O)[C@H]3O)[C@H]3COC(=O)[C@H]23)OCO4)cc(OC)c1O [Teniposide (Vumon)]

0.7681
0.4095

For the 5 molecules below, give their Glutathione normalized mean intensity values.
1. CN(C)C(=N)N=C(N)N [Metformin hydrochloride (Glucophage)]
2. O=C(O)Cc1ccccc1Nc1c(Cl)cccc1Cl
3. C[C@]12C=CC(=O)C=C1CC[C@H]1[C@@H]3C[C@@H](O)[C@](O)(C(=O)CO)[C@@]3(C)C[C@H](O)[C@@]12F
4. CC(C)OC(=O)C(C)(C)Oc1ccc(C(=O)c2ccc(Cl)cc2)cc1 [Fenofibrate (Tricor, Trilipix)]
5. NNC(=O)c1ccncc1

[0.6991, 0.334, 1.061, 0.5348, 0.3683]

Data credit: patent US20260345555A1
